Tested on: EPO stimulated TF-1 cells
assay-name: TF-1 cell proliferation assay, EPO stimulated cultures
Type: cell-based
conditions: Homo sapiens; Table 7; TF-1 cells with EPO (2 units/mL), 72 hours; read-out: EPO IC-50
pIC50: −log10 of the molar value. Counter-ions that a name gives are not always drawn.
Given measured pIC50, output true if it is greater than or equal to 4 and false if not.

compound	cat
CCN(CC)CC(=O)Nc1c(C)cccc1C [Compound 1, Lidocaine, reference compound]	false
CCCCCC(=O)Nc1c(C)cccc1C [Compound 15, N-(2,6-dimethylphenyl)hexanamide]	false
C[C@@H]1C[C@H]2[C@@H]3CCC4=CC(=O)C=C[C@]4(C)[C@@]3(F)[C@@H](O)C[C@]2(C)[C@@]1(O)C(=O)CO [Compound 2, Dexamethasone, reference compound]	true
CN1CCC(=C2c3ccccc3CC(=O)c3sccc32)CC1 [Compound 3, Ketotifen fumarate, reference compound]	true
Cc1ccccc1C(=O)NCc1cccnc1 [Compound 20, 2-methyl-N-(3-pyridinylmethyl)benzamide]	false
Nc1ccc2c(c1)OCCO2	false
Nc1ccc(C(=O)NCc2cccnc2)cc1 [Compound 4, 4-Amino-N-pyridin-3-yl-methyl-benzamide]	true

====

Tested on: IL-5 stimulated TF-1 cells
assay-name: TF-1 cell proliferation assay, IL-5 stimulated cultures
Assay type: cell-based, human
conditions: Homo sapiens, TF-1, 72 h, Table 6; TF-1 cells with IL-5 (5 ng/mL), 72 hours; read-out: IL-5 IC-50
In this section, each of the molecules is paired with its reported IC50.

molecule	assayed-system	IC50
CCCCOc1cc(C(=O)OCCN(CC)CC)ccc1N [Compound 24, Benoxinate, reference compound]	IL-5 stimulated TF-1 cells	98 µM
C[C@@H]1C[C@H]2[C@@H]3CCC4=CC(=O)C=C[C@]4(C)[C@@]3(F)[C@@H](O)C[C@]2(C)[C@@]1(O)C(=O)CO [Compound 2, Dexamethasone, reference compound]	IL-5 stimulated TF-1 cells	9 µM
CCN(CC)CCOC(=O)c1ccc(N)cc1 [Compound 17, Procaine, reference compound]	IL-5 stimulated TF-1 cells	71 µM
O=C(CN1CCN(c2ncccn2)CC1)Nc1ccc(F)cc1F	IL-5 stimulated TF-1 cells	5 µM
CCN(CC)CC(=O)Nc1c(C)cccc1C [Compound 1, Lidocaine, reference compound]	IL-5 stimulated TF-1 cells	147 µM
CC[N+](CC)(CC(=O)Nc1c(C)cccc1C)Cc1ccccc1 [Compound 28, Denatonium Saccharide]	IL-5 stimulated TF-1 cells	136 µM
CC(C)(C)OC(=O)Nc1ccc(C(=O)NCC(=O)O)cc1	IL-5 stimulated TF-1 cells	19 µM

====

Below, each entry is listed alongside its reported log10(IC50).
Test system: IL-5 stimulated TF-1 cells
assay-name: TF-1 cell proliferation assay, IL-5 stimulated cultures
Format: cell-based, human
conditions: Homo sapiens, TF-1, 72 h, Table 6; TF-1 cells with IL-5 (5 ng/mL), 72 hours; read-out: IL-5 IC-50
Where a name gives a salt, the structure may show the parent alone.
reported-endpoint: log10(IC50) (log10 of the value in µM)

In [3]: df
Out[3]:
                                   molecule  reported_endpoint  data_value
0  O=C(O)COC1Cc2ccccc2CN1 (stereo not drawn)        log10(IC50)        1.41
1          Cc1cccc(C)c1NC(=O)c1ccnc2ccccc12        log10(IC50)        1.38
2  CC1COc2c(F)c(F)cc3c(=O)c(C(=O)O)cn1c23 (stereo not drawn)        log10(IC50)        1.30
3  CCCCOc1cc(C(=O)NCCN(CC)CC)c2ccccc2n1 [Compound 13, Dibucaine Hydrochloride, reference compound]        log10(IC50)        1.68
4   O=C(O)C1CNc2ccccc2O1 (stereo not drawn)        log10(IC50)        1.58
5  Nc1ccc(C(=O)NCc2cccnc2)cc1 [Compound 4, 4-Amino-N-pyridin-3-yl-methyl-benzamide]        log10(IC50)        0.11
6  Cc1cccc(C)c1NC(=O)C(C)N (stereo not drawn) [Compound 14, Tocainide HCL, reference compound]        log10(IC50)        1.69
7     C[C@@H](O)[C@H](NC(=O)c1ccccc1)C(=O)O        log10(IC50)        1.48
8  CCCCCC(=O)Nc1c(C)cccc1C [Compound 15, N-(2,6-dimethylphenyl)hexanamide]        log10(IC50)        1.79

====

Collected pIC50 values appear next to each entry.
System: EPO stimulated TF-1 cells
assay-name: TF-1 cell proliferation assay, EPO stimulated cultures
Type: cell-based
conditions: Homo sapiens; Table 7; TF-1 cells with EPO (2 units/mL), 72 hours; read-out: EPO IC-50
Method: Controls and test compounds were assayed in serial dilutions, ranging from 1 mM to 0.5 uM, against TF-1 cell proliferation. Compounds were solublized in DMSO in 0.2M solutions followed by serial dilutions with the culture media. […] IC-50 and […] values were calculated using the software SOFTmax Pro (Molecular Devices, Sunnyvale, Calif.). […]
pIC50: −log10 of the molar value.
reported-endpoint: pIC50

>>> print(df.to_string())
                                   compound  reported_endpoint  data_value
0     CN1CCOc2cc(C(=O)O)ccc21 [Compound 21]              pIC50        3.89
1  Cc1cccc(C)c1NC(=O)Cc1ccccc1 [Compound 22, N-(2,6-dimethylphenyl)-2-phenylacetamide]              pIC50        3.89
2  CCN(CC)CCOC(=O)c1ccc(N)cc1 [Compound 17, Procaine, reference compound]              pIC50        3.96
